Just for reference, the supplement of paper PMC7877785 is where these values come from.

self-splicing fitness (ln) listing for selected sequences.
test_details: self-splicing fitness, log relative to wild type (ln ratio); higher = more splicing; Tetrahymena group I intron in knt gene, E. coli kanamycin selection, DiMSum; sequences stand for … in CUCUCU…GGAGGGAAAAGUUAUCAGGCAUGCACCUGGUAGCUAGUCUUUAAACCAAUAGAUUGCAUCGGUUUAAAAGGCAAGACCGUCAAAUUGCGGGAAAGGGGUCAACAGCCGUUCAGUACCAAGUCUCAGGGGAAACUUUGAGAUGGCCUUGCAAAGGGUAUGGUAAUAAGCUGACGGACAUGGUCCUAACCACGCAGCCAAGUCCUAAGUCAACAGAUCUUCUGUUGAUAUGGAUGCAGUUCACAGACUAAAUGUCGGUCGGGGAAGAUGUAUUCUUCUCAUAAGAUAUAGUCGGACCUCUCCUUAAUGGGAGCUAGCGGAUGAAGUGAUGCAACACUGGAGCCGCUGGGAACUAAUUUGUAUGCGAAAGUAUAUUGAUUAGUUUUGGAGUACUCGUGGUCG;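 note: selection with 25 µg/mL kanamycin versus none on LB agar overnight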
stated_conditions: 37 °C
Reply briefly: the number, and no unit.

Reference set, count: 10
CCGUAGCAAUAUUACGUUAG; -0.971
GCGUAGCAAUAUUACGCUUG; -2.26
CCGGAGCAAUAUUACGCCAA; -2.53
GGCUAGCAAUAUUACGGGGG; -2.09
CUUUAGCAAUAUUACGGAGG; -1.29
UCCUAGCAAUAUUACGUCUC; -2.52
AGGAAGCAAUAUUACGGUUA; -0.654
CCCAAGCAAUAUUACGCUGG; -2.52
AUUAAGCAAUAUUACGUGUU; -0.83
CCAAAGCAAUAUUACGGCUG; -0.917

Task item: Report self-splicing fitness (ln) for GAGUAGCAAUAUUACGACAU please.
Reply: -0.127

Task item: Report self-splicing fitness (ln) for CGCUAGCAAUAUUACGUCGU please.
Reply: -2.87

Task item: Report self-splicing fitness (ln) for AUGUAGCAAUAUUACGGCCG please.
Reply: -0.303

Task item: Report self-splicing fitness (ln) for GAGGAGCAAUAUUACGAGAG please.
Reply: -2.76

Task item: Report self-splicing fitness (ln) for UACGAGCAAUAUUACGACGC please.
Reply: -2.09

Task item: Report self-splicing fitness (ln) for AAUAAGCAAUAUUACGCGUU please.
Reply: -1.8

Task item: Report self-splicing fitness (ln) for UCACAGCAAUAUUACGAUGC please.
Reply: -1.26

Task item: Report self-splicing fitness (ln) for AUCCAGCAAUAUUACGUCCA please.
Reply: -0.412

Task item: Report self-splicing fitness (ln) for GUACAGCAAUAUUACGAAUU please.
Reply: -1.69

Task item: Report self-splicing fitness (ln) for CAAGAGCAAUAUUACGAUUU please.
Reply: -2.45

Task item: Report self-splicing fitness (ln) for UAUGAGCAAUAUUACGCGCG please.
Reply: -1.01

Task item: Report self-splicing fitness (ln) for AACUAGCAAUAUUACGGACG please.
Reply: -0.904

====

test_details: self-splicing fitness, log relative to wild type (ln ratio); higher = more splicing; Tetrahymena group I intron in knt gene, E. coli kanamycin selection, DiMSum; sequences stand for … in CUCUCU…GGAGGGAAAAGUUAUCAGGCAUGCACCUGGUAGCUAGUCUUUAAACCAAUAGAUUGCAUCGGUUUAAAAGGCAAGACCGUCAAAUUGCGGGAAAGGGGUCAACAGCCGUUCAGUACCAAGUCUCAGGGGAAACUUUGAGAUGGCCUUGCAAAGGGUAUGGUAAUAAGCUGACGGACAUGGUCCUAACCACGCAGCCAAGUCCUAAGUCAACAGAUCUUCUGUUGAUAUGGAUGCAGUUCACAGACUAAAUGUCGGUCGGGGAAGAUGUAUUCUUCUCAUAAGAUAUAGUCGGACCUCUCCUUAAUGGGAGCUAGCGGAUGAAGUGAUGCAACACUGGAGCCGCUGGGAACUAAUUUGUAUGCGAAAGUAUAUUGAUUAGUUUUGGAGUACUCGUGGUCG
stated_conditions: 37 °C
experimental_endpoint: self-splicing fitness (ln)
Reply briefly: the number, and no unit.

UGCGAGCAAUAUUACGCGGA; -2.09
CGUGAGCAAUAUUACGUGUA; -3.91
UUGCAGCAAUAUUACGGGCG; -0.511
UGCAAGCAAUAUUACGCACC; -1.25
GCCCAGCAAUAUUACGACCG; -1.55

Task item: Report self-splicing fitness (ln) for AAACAGCAAUAUUACGCUGU please.
Reply: -1.89

Task item: Report self-splicing fitness (ln) for UAUCAGCAAUAUUACGGUUC please.
Reply: 0.223

====

test_details: self-splicing fitness, log relative to wild type (ln ratio); higher = more splicing; Tetrahymena group I intron in knt gene, E. coli kanamycin selection, DiMSum; sequences stand for … in CUCUCU…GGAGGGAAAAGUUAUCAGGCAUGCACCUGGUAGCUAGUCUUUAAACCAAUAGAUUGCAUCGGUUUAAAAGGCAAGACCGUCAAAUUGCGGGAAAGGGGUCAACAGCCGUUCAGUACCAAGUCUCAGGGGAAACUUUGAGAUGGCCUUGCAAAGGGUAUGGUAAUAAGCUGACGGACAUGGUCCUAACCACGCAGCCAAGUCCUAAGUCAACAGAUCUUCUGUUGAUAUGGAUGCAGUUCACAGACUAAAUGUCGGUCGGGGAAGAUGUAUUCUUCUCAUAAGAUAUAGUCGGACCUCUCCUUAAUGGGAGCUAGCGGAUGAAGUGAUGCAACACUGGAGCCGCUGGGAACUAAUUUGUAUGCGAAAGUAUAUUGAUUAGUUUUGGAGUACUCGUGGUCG
stated_conditions: 30 °C
self-splicing fitness (ln) listing for selected sequences.
Reply briefly: the number, and no unit.

Reference set, count: 10
AACAAGCAAUAUUACGGCAA; -0.882
UGCAAGCAAUAUUACGACUA; 0.0901
CAAUAGCAAUAUUACGGGCA; -2.46
UCACAGCAAUAUUACGUUGC; -4.42
AACUAGCAAUAUUACGUUUA; -1.98
UAUUAGCAAUAUUACGACAU; -1.63
CAGGAGCAAUAUUACGCUGU; -3.13
ACGUAGCAAUAUUACGGAAU; -2.29
AUUAAGCAAUAUUACGAUUG; -2.98
CCCUAGCAAUAUUACGUGAC; -2.85

Task item: Report self-splicing fitness (ln) for CGGAAGCAAUAUUACGAUCA please.
Reply: -0.698

Task item: Report self-splicing fitness (ln) for UCGUAGCAAUAUUACGUCUC please.
Reply: -2.93

Task item: Report self-splicing fitness (ln) for GAAUAGCAAUAUUACGGCCA please.
Reply: -0.596

Task item: Report self-splicing fitness (ln) for AUGGAGCAAUAUUACGUGCG please.
Reply: -3.44

Task item: Report self-splicing fitness (ln) for GAGAAGCAAUAUUACGUUAC please.
Reply: -3.39

Task item: Report self-splicing fitness (ln) for CAAGAGCAAUAUUACGCAGA please.
Reply: -3.45

Task item: Report self-splicing fitness (ln) for CUCCAGCAAUAUUACGAUUA please.
Reply: -2.63

Task item: Report self-splicing fitness (ln) for UAACAGCAAUAUUACGACAC please.
Reply: -3.35

Task item: Report self-splicing fitness (ln) for AGUUAGCAAUAUUACGUCUG please.
Reply: -1.43

====

test_details: self-splicing fitness, log relative to wild type (ln ratio); higher = more splicing; Tetrahymena group I intron in knt gene, E. coli kanamycin selection, DiMSum; sequences stand for … in CUCUCU…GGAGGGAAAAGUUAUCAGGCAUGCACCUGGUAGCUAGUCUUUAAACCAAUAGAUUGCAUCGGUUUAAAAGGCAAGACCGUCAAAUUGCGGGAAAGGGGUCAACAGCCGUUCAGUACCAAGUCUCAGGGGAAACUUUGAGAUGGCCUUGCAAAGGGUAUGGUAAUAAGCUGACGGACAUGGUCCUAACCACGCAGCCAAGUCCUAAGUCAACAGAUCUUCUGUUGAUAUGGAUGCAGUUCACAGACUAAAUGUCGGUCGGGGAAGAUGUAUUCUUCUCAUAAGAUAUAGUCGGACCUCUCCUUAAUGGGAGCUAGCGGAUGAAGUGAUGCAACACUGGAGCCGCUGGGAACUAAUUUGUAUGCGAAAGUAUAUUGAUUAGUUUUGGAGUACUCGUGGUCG
stated_conditions: 30 °C
Mark Y for reported self-splicing fitness (ln) of -2 or greater; mark N for anything smaller.

Solved entries:
UGGGAGCAAUAUUACGACUA; Y
CACCAGCAAUAUUACGGGGG; N

Task item: Given AUCGAGCAAUAUUACGGUGA , state whether its self-splicing fitness (ln) is at least -2.
Reply: N

Task item: Given GUGAAGCAAUAUUACGGCUA , state whether its self-splicing fitness (ln) is at least -2.
Reply: Y

Task item: Given AGAUAGCAAUAUUACGAUUC , state whether its self-splicing fitness (ln) is at least -2.
Reply: Y

Task item: Given GCGGAGCAAUAUUACGAGGU , state whether its self-splicing fitness (ln) is at least -2.
Reply: N

Task item: Given GAGGAGCAAUAUUACGCGGU , state whether its self-splicing fitness (ln) is at least -2.
Reply: N

Task item: Given AGUUAGCAAUAUUACGGUCG , state whether its self-splicing fitness (ln) is at least -2.
Reply: Y

Task item: Given AAGCAGCAAUAUUACGCCAA , state whether its self-splicing fitness (ln) is at least -2.
Reply: N

Task item: Given UGUCAGCAAUAUUACGUGCG , state whether its self-splicing fitness (ln) is at least -2.
Reply: Y

Task item: Given UCCAAGCAAUAUUACGCAUG , state whether its self-splicing fitness (ln) is at least -2.
Reply: N

Task item: Given UUCCAGCAAUAUUACGAUGC , state whether its self-splicing fitness (ln) is at least -2.
Reply: N

Task item: Given CCGUAGCAAUAUUACGUACC , state whether its self-splicing fitness (ln) is at least -2.
Reply: N
